- EXPERIMENTAL_DETAILS: Intrinsic clearance in rat liver microsomes in presence of NADPH
- Format: ADME, Microsome
RESULT_TYPE: CLint scaled (mL/min/kg)

CHEMICAL_STRUCTURE: CN(C)CC(=O)N1CCn2c(c(C3CCCCC3)c3ccc(C(=O)O)cc32)-c2ccc(F)cc2C1
CLint scaled, mL/min/kg: 16

[I] CN(C)CCN1CCn2c(c(C3CCCCC3)c3ccc(C(=O)O)cc32)-c2ccccc2C1
[II] COc1ccc2c(c1)CN(C)CCn1c-2c(C2CCCCC2)c2ccc(C(=O)O)cc21
Compare CLint scaled: is it lower for I or for II ? Your answer should be the label of the entry you select.
II
(II: 43 mL/min/kg, I: 100 mL/min/kg)

----------
- EXPERIMENTAL_DETAILS: Ratio of drug level from liver to plasma in po dosed rat after 6 hrs
- Assay type: ADME, organism-based
RESULT_TYPE: Kp at 6 h

[I] CN(C)CCN1CCn2c(c(C3CCCCC3)c3ccc(C(=O)O)cc32)-c2ccccc2C1
[II] CN(C)CC(=O)N1CCn2c(c(C3CCCCC3)c3ccc(C(=O)O)cc32)-c2ccc(F)cc2C1
In terms of reported Kp at 6 h, does I or II have the smaller number? Answer = label.
II

----------
- EXPERIMENTAL_DETAILS: Intrinsic clearance in human liver microsomes in presence of NADPH
- Type: ADME, Microsome
RESULT_TYPE: CLint scaled (mL/min/kg)

CHEMICAL_STRUCTURE: CN(C)CCN1CCn2c(c(C3CCCCC3)c3ccc(C(=O)O)cc32)-c2ccccc2C1
RESULT_TYPE: CLint scaled
MEASURED_VALUE: 5

[I] COc1ccc2c(c1)CN(C)CCn1c-2c(C2CCCCC2)c2ccc(C(=O)O)cc21
[II] CN(C)CC(=O)N1CCn2c(c(C3CCCCC3)c3ccc(C(=O)O)cc32)-c2ccc(F)cc2C1
Exercise: compare I and II ; which one has the greater CLint scaled? Label of pick, please.
II

----------
- Test system: Hepatitis C virus
- EXPERIMENTAL_DETAILS: Antiviral activity against Hepatitis C virus infected in human HUH7 cells by replicon assay
- Type: functional, organism-based, Hepacivirus hominis
- TEST_SETTINGS: Huh-7
pEC50: −log10 of the molar value.
RESULT_TYPE: pEC50

Some solved cases for reference:
COMPOUND: CN1Cc2ccccc2-c2c(C3CCCCC3)c3ccc(C(=O)O)cc3n2CC1=O
MEASURED_VALUE: 4.72

COMPOUND: CN(C)CC1Cn2c(c(C3CCCCC3)c3ccc(C(=O)O)cc32)-c2ccccc2CN1C (racemic)
MEASURED_VALUE: 6.85

[I] COc1ccc2c(c1)N(CCN(C)C)CCCn1c-2c(C2CCCCC2)c2ccc(C(=O)O)cc21
[II] COc1ccc2c(c1)CN(CCN(C)C)CCn1c-2c(C2CCCCC2)c2ccc(C(=O)O)cc21
[III] COc1ccc2c(c1)CN(C)CCn1c-2c(C2CCCCC2)c2ccc(C(=O)O)cc21
// ascending sort on recorded pEC50 Response field: labels, in requested order.
I, III, II
(I: 6.27, III: 6.54, II: 7.00)

----------
- EXPERIMENTAL_DETAILS: AUC in rat
- Assay type: ADME, organism-based
- TEST_SETTINGS: plasma
RESULT_TYPE: AUC (µM·h)

Answered examples (2):
CHEMICAL_STRUCTURE: CN(C)CC(=O)N1CCn2c(c(C3CCCCC3)c3ccc(C(=O)O)cc32)-c2ccc(F)cc2C1
AUC [µM·h]: 4
--
CHEMICAL_STRUCTURE: CCN(CC)C1CCN(C(=O)Cn2c(-c3ccc(Cl)cc3)c(C3CCCCC3)c3ccc(C(=O)O)cc32)CC1
AUC [µM·h]: 0.2

[I] COc1ccc2c(c1)CN(C)CCn1c-2c(C2CCCCC2)c2ccc(C(=O)O)cc21
[II] CN(C)CCN1CCn2c(c(C3CCCCC3)c3ccc(C(=O)O)cc32)-c2ccccc2C1
Please compare: I and II . Report which one has the smaller AUC value. To answer, give the label that identifies your chosen option.
I
(I: 2.9 µM·h, II: 4.2 µM·h)
